measurement.notes: In-vivo pharmacokinetic study in rats after oral administration of EECQ extract
setup.conditions: rat; oral 400 mg/Kg EECQ, male SD rats, serum, mean ± SD, n = 6
result.type: Tmax (min)

a: O=c1c(O)c(-c2ccc(O)c(O)c2)oc2cc(O)cc(O)c12
b: Oc1ccc(/C=C/c2cc(O)cc(O)c2)cc1 [trans-Resveratrol, trans-resveratrol]
(Q) Could you tell me which of a and b has the lower Tmax reading? Choose, then provide that item's label.
(A) b
